- System: STK36
- run.conditions: concentration: 1 μM, replicates: in singlicate; n = 1;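 also: KINOMEscan kinase panel screen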
%Inh values by entry
readout.kind: %Inh (%)

molecule: C[C@@H]1CCCCN1c1cc(-c2ccc3c(N)n[nH]c3c2)nc(N)n1
readout.kind: %Inh
measured.value: 0
//
molecule: Cl.O=C(Nc1cccc(-c2nn3ncccc3c2-c2ccnc(Nc3cccnc3)n2)c1)c1c(F)cccc1F
readout.kind: %Inh
measured.value: 96.7
//
molecule: CCCc1ccc(S(=O)(=O)NC2CCN(c3ccnc(Nc4ccc(F)cc4)n3)C2)cc1 (centres unmarked)
readout.kind: %Inh
measured.value: 0
//
molecule: Cc1cccc(-c2nc(Nc3ccc4[nH]ncc4c3)c3ccccc3n2)n1
readout.kind: %Inh
measured.value: 15
//
molecule: Cc1cc(N2Cc3ccccc3C2)nc(Nc2ccc(S(=O)(=O)N3CCOCC3)cc2)n1.Cl
readout.kind: %Inh
measured.value: 4
//
molecule: CN1C(=O)C(Nc2ccc(Cl)c(C(=O)O)c2)=C(c2ccc(Cl)cc2)C1=O
readout.kind: %Inh
measured.value: 0
//
molecule: O=c1cc(N2CCOCC2)nc2n(Cc3cccc(Cl)c3Cl)ccn12
readout.kind: %Inh
measured.value: 43
//
molecule: CC1=C(C(=O)Nc2cc3cn[nH]c3cc2F)C(c2ccc(C(F)(F)F)cc2)CC(=O)N1 (centres unmarked)
readout.kind: %Inh
measured.value: 0

====

- System: CSNK2A2
- run.conditions: concentration: 1 μM, replicates: in singlicate; n = 1
Threshold 2%. %Inh below it: Y. %Inh at it or above: N.

compound: O=C(Nc1ccc2c(c1)OCO2)NC1CCN(c2ccnc(Nc3ccc(F)cc3)n2)C1 (stereo not shown)
group: Y
//
compound: Fc1cccc(COc2nnc(-c3ccc4c(c3)CCO4)o2)c1
group: N
//
compound: NC(=O)c1nnc2ccccc2c1N
group: N
//
compound: COc1cccc(-c2cc(-c3c[nH]nc3-c3ccccn3)ccn2)c1
group: N
//
compound: CCn1c(-c2cccnc2O)nc2cnccc21
group: Y
//
compound: CCCc1ccc(S(=O)(=O)NC2CCN(c3ccnc(Nc4ccc(F)cc4)n3)C2)cc1 (stereo not shown)
group: Y
//
compound: Cl.Oc1ccc(-c2nc(-c3ccccc3)[nH]c2-c2ccncc2)cc1
group: Y
//
compound: COc1ccccc1-c1ccc2c(NC(=O)C3CC3)n[nH]c2n1
group: Y

====

- Tested on: NIK
- Construct: gene MAP3K14
- run.conditions: concentration: 1 μM, replicates: in singlicate; n = 1
So basically, if %Inh comes in under 20% it's True, and if it's 20% or more it's False.

input.smiles: Cc1ccc(-c2cc(-c3c[nH]nc3-c3ccccn3)ccn2)cc1
group: False

input.smiles: Cl.Oc1ccc(-c2nc(-c3ccccc3)[nH]c2-c2ccncc2)cc1
group: False

input.smiles: CN1C(=O)C(Nc2ccc(Cl)c(C(=O)O)c2)=C(c2ccc(Cl)cc2)C1=O
group: True

input.smiles: Nc1nc(-c2nccs2)c(-c2ccnc3ccccc23)s1
group: True

input.smiles: O=C(Nc1n[nH]c2cc(-c3cccc(F)c3F)ccc12)C1CC1
group: True

input.smiles: CN(C)CCN(C)C(=O)c1cc(-c2ccncc2)c(-c2ccc(Cl)c(O)c2)o1.Cl.Cl
group: True

input.smiles: COC(=O)c1c(-c2ccccc2)c2cc(OC)ccc2c(=O)n1Cc1ccccc1
group: True

input.smiles: Cl.c1ccc(-c2n[nH]cc2-c2ccnc(-c3ccc(CN4CCOCC4)cc3)c2)nc1
group: True

input.smiles: Cc1cc(-c2ccc3c(c2)CC[C@@H](N[C@@H](C)c2ccccc2)C3)cnc1N.Cl
group: False

These entries and their values trace back to paper PMC5540273.
